- targetEntity: T1, recombinant rat VISTA (His-tagged) (rat, UniProt A0ABK0L5H3 33-192)
- T1 sequence: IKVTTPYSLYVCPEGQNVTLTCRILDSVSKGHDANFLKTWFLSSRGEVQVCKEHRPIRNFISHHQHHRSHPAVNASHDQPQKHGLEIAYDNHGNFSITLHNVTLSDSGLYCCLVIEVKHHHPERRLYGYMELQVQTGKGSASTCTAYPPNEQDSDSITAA
- experiment: ELISA, plate coated with rat VISTA
pEC50: −log10 of the molar value.

>  <binder>
anti-VISTA clone V4-C28 IgG1 (antibody, V domains shown) VH: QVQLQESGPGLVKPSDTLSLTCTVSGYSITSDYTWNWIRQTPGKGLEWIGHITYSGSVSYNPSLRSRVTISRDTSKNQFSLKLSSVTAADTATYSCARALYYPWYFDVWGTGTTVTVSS VL: EIVLTQSPATLSLSPGERATLSCRASSSVGYIHWYQQKPGQAPRPLIYATSYRATGIPARFSGSGSGTDNTLTISSLEPEDSAVYYCQQWSSYPPITFGGGTKLEVKR

>  <pEC50>
9.66

$$$$
